Kindly state % cells in cell cycle phase: G1 for each of the entries shown.
- Tested on: HeLa cells
- Test Summary: Cell cycle assay in HeLa cells
- Format: cell-based, human
- Condition Summary: HeLa cells, 150 nM oligomeric compound, 48 hours after treatment; relative to untreated control (UTC=100)
In the oligonucleotide strings, read from the 5' end, every base follows the letter of its sugar. An asterisk marks phosphorothioate; unmarked linkages are phosphodiester. Other units and linkages are bracketed, terminal groups are in braces. A string of capitals states the bases alone. e = 2'-O-(2-methoxyethyl) (MOE); [5mC] = 5-methylcytosine; d = 2'-deoxy (DNA)
Unit % implied. Number only.

Task: I'd like to know its % cells in cell cycle phase: G1. The substance in question is 328339 (eG*e[5mC]*eA*eG*e[5mC]*dG*d[5mC]*dA*dG*d[5mC]*dT*dG*dG*dT*d[5mC]*eT*e[5mC]*e[5mC]*e[5mC]*e[5mC]) [compound 328339]
Result: 73

Task: Data request, read-out % cells in cell cycle phase: G1, for 327957 (antisense e[5mC]*eA*e[5mC]*eA*eA*eG*eT*eT*e[5mC]*eG*eG*eA*eT*e[5mC]*eT*eA*e[5mC]*eG*eG*eG*eT*eT) [compound 327957]
Result: 65

Task: Which % cells in cell cycle phase: G1 value is on record for 340927 (antisense eT*eG*eA*eG*e[5mC]*dT*dA*d[5mC]*dA*dG*dT*dG*d[5mC]*dT*dT*e[5mC]*eA*eT*e[5mC]*eT*e[5mC]*eA) [compound 340927] ?
Result: 91

---

- System: aP2
- Test Summary: aP2 mRNA expression in adipocytes (real-time PCR)
- Format: cell-based, human
- Condition Summary: differentiating adipocytes transfected with oligomeric compound; Table 75
In the oligonucleotide strings, read from the 5' end, every base follows the letter of its sugar. An asterisk marks phosphorothioate; unmarked linkages are phosphodiester. Other units and linkages are bracketed, terminal groups are in braces. A string of capitals states the bases alone. e = 2'-O-(2-methoxyethyl) (MOE); [5mC] = 5-methylcytosine
Record form. Attribute: aP2 mRNA. Fill in for each entry.

Task: Reported aP2 mRNA for 346692 (UAAACGGAACCACUAGUGACUUG; all 2'-MOE, all phosphorothioate, methylation of C and T or U not given here) [compound 346692] : what is it?
Result: 26 percentage of untreated control (UTC)

Task: What aP2 mRNA value was documented for this substance, 344342 (AUGCUUUUUGGGGUAAGGGCUU; anti-miR; all 2'-MOE, all phosphorothioate, methylation of C and T or U not given here) [compound 344342] ?
Result: 88 percentage of untreated control (UTC)

Task: I have this substance here, 341798 (antisense GCAUUAUUACUCACGGUACGA; all 2'-MOE, all phosphorothioate, methylation of C and T or U not given here) [compound 341798] , and I need its recorded aP2 mRNA.
Result: 84 percentage of untreated control (UTC)

Task: Form field: reported aP2 mRNA of 341804 (antisense ATCTGCACTGTCAGCACTTT; all 2'-MOE, all phosphorothioate, methylation of C not given here) [compound 341804]
Result: 78 percentage of untreated control (UTC)

Task: Could you tell me which aP2 mRNA is on file for 327959 (antisense e[5mC]*eA*eG*e[5mC]*e[5mC]*eG*e[5mC]*eT*eG*eT*e[5mC]*eA*e[5mC]*eA*e[5mC]*eG*e[5mC]*eA*e[5mC]*eA*eG) [compound 327959] ?
Result: 24 percentage of untreated control (UTC)

Task: Please give the measured aP2 mRNA for this substance: 340350 (antisense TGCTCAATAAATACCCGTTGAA; all 2'-MOE, all phosphorothioate, methylation of C not given here) [compound 340350]
Result: 64 percentage of untreated control (UTC)

Task: Query: aP2 mRNA; subject: 327918 (antisense e[5mC]*eT*eA*eG*eT*eA*e[5mC]*eA*eT*e[5mC]*eA*eT*e[5mC]*eT*eA*eT*eA*e[5mC]*eT*eG*eT*eA) [compound 327918]
Result: 91 percentage of untreated control (UTC)

Task: Requested read-out: aP2 mRNA. Entry: 328127 (antisense eA*eA*e[5mC]*eG*eA*eT*eA*eA*eA*eA*e[5mC]*eA*eT*eA*e[5mC]*eT*eT*eG*eT*e[5mC]*eA) [compound 328127]
Result: 95 percentage of untreated control (UTC)
